test system: Quadruplex DNA; assay: Stabilization of c-MYC G4 quadruplex DNA Pu22 (unknown origin) assessed as change in melting temperature at 2 uM by CD spectroscopy; assay type: nucleic-acid assay

| compound | ΔTm, °C |
| --- | --- |
| CCn1c2ccccc2c2cc(-c3nc(-c4ccc(N5CCN(C)CC5)cc4)c(-c4ccc(N5CCN(C)CC5)cc4)n3-c3ccc(OCCCOC4(C)O[C@H]5O[C@H](CO)[C@@H](O)[C@H](O)[C@H]5O4)cc3)ccc21 (single isomer, unassigned) | 14.6 |
| CCn1c2ccccc2c2cc(-c3nc(-c4ccc(N5CCN(C)CC5)cc4)c(-c4ccc(N5CCN(C)CC5)cc4)n3CCO[C@@H]3O[C@H](CO)[C@H](O)[C@H](O)[C@H]3O)ccc21 (single isomer, unassigned) | 11.3 |
| COc1ccc(-n2c(-c3ccc4c(c3)c3ccccc3n4Cc3cn(CCOCCO[C@@H]4O[C@H](CO)[C@@H](O)[C@H](O)[C@H]4O)nn3)nc(-c3ccc(N4CCN(C)CC4)cc3)c2-c2ccc(N3CCN(C)CC3)cc2)cc1 (single isomer, unassigned) | 17.7 |
| CCn1c2ccccc2c2cc(-c3nc(-c4ccc(N5CCN(C)CC5)cc4)c(-c4ccc(N5CCN(Cc6cn([C@@H]7O[C@H](CO)[C@@H](O)[C@H](O)[C@H]7O)nn6)CC5)cc4)[nH]3)ccc21 (single isomer, unassigned) | 15.8 |

* * *

tested on: Quadruplex DNA; assay: Stabilization of c-MYC G4 quadruplex DNA Pu22 (unknown origin) assessed as change in melting temperature at 2 uM by CD spectroscopy; assay type: nucleic-acid assay

| molecule | endpointUnit | ΔTm |
| --- | --- | --- |
| CCn1c2ccccc2c2cc(-c3nc(-c4ccc(N5CCN(C)CC5)cc4)c(-c4ccc(N5CCN(C)CC5)cc4)n3-c3ccc(OCCCO)cc3)ccc21 | °C | 9.2 |
| CCn1c2ccccc2c2cc(-c3nc(-c4ccc(N5CCN(C)CC5)cc4)c(-c4ccc(N5CCN(C)CC5)cc4)n3CCOCCO[C@H]3OC(CO)C(O)[C@@H](O)[C@@H]3O)ccc21 (single isomer, unassigned) | °C | 14.9 |
| COc1ccc(-n2c(-c3ccc4c(c3)c3ccccc3n4Cc3cn([C@@H]4O[C@H](CO)[C@@H](O)[C@H](O)[C@H]4O)nn3)nc(-c3ccc(N4CCN(C)CC4)cc3)c2-c2ccc(N3CCN(C)CC3)cc2)cc1 (single isomer, unassigned) | °C | 10.3 |
| CCn1c2ccccc2c2cc(-c3nc(-c4ccc(N5CCN(C)CC5)cc4)c(-c4ccc(N5CCN(Cc6cn([C@@H]7O[C@H](COC(C)=O)[C@H](OC(C)=O)[C@H](OC(C)=O)[C@H]7OC(C)=O)nn6)CC5)cc4)[nH]3)ccc21 (single isomer, unassigned) | °C | 15.1 |
| COc1ccc(-n2c(-c3ccc4c(c3)c3ccccc3n4Cc3cn([C@@H]4O[C@H](COC(C)=O)[C@H](OC(C)=O)[C@H](OC(C)=O)[C@H]4OC(C)=O)nn3)nc(-c3ccc(N4CCN(C)CC4)cc3)c2-c2ccc(N3CCN(C)CC3)cc2)cc1 (single isomer, unassigned) | °C | 13.3 |

* * *

test: Binding affinity to G-rich NRAS RNA (unknown origin) assessed as binding constant by SPR analysis
Measured Kd, listed per entry for reference.
resultType: Kd (µM)

| molecule | resultType | relationalOperator | measuredResult |
| --- | --- | --- | --- |
| CCn1c2ccccc2c2cc(-c3nc(-c4ccc(N5CCN(C)CC5)cc4)c(-c4ccc(N5CCN(C)CC5)cc4)n3-c3ccc(OCCCO[C@@H]4O[C@H](CO)[C@H](O)[C@H](O)[C@H]4O)cc3)ccc21 (single isomer, unassigned) | Kd | > | 20 |
| CCn1c2ccccc2c2cc(-c3nc(-c4ccc(N5CCN(C)CC5)cc4)c(-c4ccc(N5CCN(Cc6cn([C@@H]7O[C@H](CO)[C@H](O)[C@H](O)[C@H]7O)nn6)CC5)cc4)[nH]3)ccc21 (single isomer, unassigned) | Kd | = | 9.9 |
| CCn1c2ccccc2c2cc(-c3nc(-c4ccc(N5CCN(C)CC5)cc4)c(-c4ccc(N5CCN(C)CC5)cc4)n3-c3ccc(O[C@@H]4O[C@H](CO)[C@@H](O)[C@H](O)[C@H]4O)cc3)ccc21 | Kd | = | 16.9 |
| CCn1c2ccccc2c2cc(-c3nc(-c4ccc(N5CCN(C)CC5)cc4)c(-c4ccc(N5CCN(C)CC5)cc4)n3-c3ccc(OCCOCCOC4(C)O[C@H]5O[C@H](COC(C)=O)[C@@H](OC(C)=O)[C@H](OC(C)=O)[C@H]5O4)cc3)ccc21 (single isomer, unassigned) | Kd | > | 20 |
| COc1ccc(-n2c(-c3ccc4c(c3)c3ccccc3n4Cc3cn(CCOCCO[C@@H]4O[C@H](CO)[C@@H](O)[C@H](O)[C@H]4O)nn3)nc(-c3ccc(N4CCN(C)CC4)cc3)c2-c2ccc(N3CCN(C)CC3)cc2)cc1 (single isomer, unassigned) | Kd | = | 19.2 |
| CCn1c2ccccc2c2cc(-c3nc(-c4ccc(N5CCN(C)CC5)cc4)c(-c4ccc(N5CCN(Cc6cn(CCOCCO[C@@H]7O[C@H](COC(C)=O)[C@@H](OC(C)=O)[C@H](OC(C)=O)[C@H]7OC(C)=O)nn6)CC5)cc4)[nH]3)ccc21 (single isomer, unassigned) | Kd | > | 20 |
| CCn1c2ccccc2c2cc(-c3nc(-c4ccc(N5CCN(C)CC5)cc4)c(-c4ccc(N5CCN(C)CC5)cc4)n3-c3ccc(OCCOCCO[C@@H]4O[C@H](CO)[C@H](O)[C@H](O)[C@H]4O)cc3)ccc21 (single isomer, unassigned) | Kd | = | 16.4 |
| CCn1c2ccccc2c2cc(-c3nc(-c4ccc(N5CCN(C)CC5)cc4)c(-c4ccc(N5CCN(C)CC5)cc4)n3-c3ccc(OC)cc3)ccc21 | Kd | > | 20 |
| CCn1c2ccccc2c2cc(-c3nc(-c4ccc(N5CCN(C)CC5)cc4)c(-c4ccc(N5CCN(C)CC5)cc4)n3-c3ccc(OCCOCCOC4(C)O[C@H]5O[C@H](CO)[C@@H](O)[C@H](O)[C@H]5O4)cc3)ccc21 (single isomer, unassigned) | Kd | > | 20 |
